System: MS2 coat protein
Test: apparent KD of MS2 coat protein; designed switch direction (-1 OFF switch, 1 ON switch): -1; higher = weaker reporter binding
Conditions: Eterna round: R95; input ligand: none
apparent KD of MS2 coat protein values for the sequences below.
# unit: nM | format: bare number

// worked examples, apparent KD of MS2 coat protein included
chain-sequence	unit-string	apparent KD of MS2 coat protein
UUUAAUUUUUUUUUUUUACAAGCUUUUUGCUCGUCUUAUACAUGAGGAUCACCCAUGUGGGUAGAAGAUAAAUUAUC [JMF 6] (puzzle: Sensor v3, turn-off variant 2)	nM	37.4
CCGAGGUAGCGGUCCUAUGACAUGAGGAUCACCCAUGUACCUCGCUACGAGCUUUUUGCUCGUCUUAUAAUUCUCGG [JL Atriat mod 1] (puzzle: Sensor v3, turn-off variant 1)	nM	73.6

Now consider the entry below.
# query: apparent KD of MS2 coat protein of entry CUGAUGUCAGGAUAUCAGAAAAGGCGCAAGGACACGCCAAAUGAGAAGGGACAUGAGGAUCACCCAUGUAAAAC [Orata] (puzzle: Exclusion 4)
18.1

---

System: MS2 coat protein
Assay: apparent KD of MS2 coat protein; higher = weaker reporter binding
Conditions: Eterna round: R107; input ligand: tryptophan 2.4 mM
apparent KD of MS2 coat protein values for the sequences below.
# unit: nM | format: bare number

chain-sequence	apparent KD of MS2 coat protein, nM
UGUAUGUGAUUUGAUACCAGACCAACUGGUAAUACAUGAGGAUCACCCAUGUAGAUUUGGGUCCCUUGGCAGCAAAUCGCAUACU [SSTheo B #23]	46.1
ACGACGCAUAGUGAUACCAGUAGAACAUGAGGAUCACCCAUGUCUGUUAUGUACAAAUACUGCCCUUGGCAGCACUAUGCGUCAG [SSTheo B #5]	11.6
AUAACAUGAGGAUCACCCAUGUAAGCAGAUACCAGCUAGGAAACUAGCCCUUGGCAGCUGCAAUCAUGGGUGUUUGCAGCUGCAA [(M1)-(M2)-(T1)-(T2)-(M)'-(T)'_Design2]	13

# query: apparent KD of MS2 coat protein of entry CGAUAGAUACGAAGGAGCGACAUGAGGAUCACCCAUGUCUACCACGUCGAAAGACGCUCAUGUCAGGUAGGUCGCGUAUUUAUCG [Astros-Eli-mod8]
101

Proceed to AAGUGGCACGGAAGGAGCGAGUUUACCUAUUACAUGAGGAUCACCCAUGUGUAUAAUGGGACUCAGGUAGGUCGCCGUUGUCACU [Same State Arginine B GF 25]
31.6

Proceed to UGUCCUCAUGCGGCCGCCACUGUCGGCCGCCACUAAACCUGAGGAUCACCCGGGUAGGACCGGGACAGGACCGGGCAUGGGUGCU [#DoubleAptamer 4 #AlternativeMS2]
111

---

Tested on: MS2 coat protein
Experiment: apparent KD of MS2 coat protein; higher = weaker reporter binding
Details: Eterna round: R107; input ligand: arginine 13.2 mM
apparent KD of MS2 coat protein below 0.03 µM gives NO; apparent KD of MS2 coat protein at or above it gives YES.

Reference set (5 entries):
chain-sequence	class
GGCCAAAAGGCGGCCGCCACUCAAGAGUAGCAUGGAAAGACAUGAGGAUCACCCAUGUAAAGAAAGAGGACCGGGCCAAAAGGCC	NO
AGACAUGAGGAUCACCCAUGUAGUACGGAUACCAGAUCCAGAUGCGUCCCUUGGCAGCUGUAGUACAGCGUUACAUCGCUCGUAG [Exclusion - Theophylline A (Freestyle 24)]	NO
UAAUAAGUACCGGUCCUCAGAUCCUCAUGACGAGGACCGGUACGGCCGCCACUCGAAACAUGAGGAUCACCCAUGUAAUAAUAAC [Brourdmod03]	NO
ACCGGCACCUAGGAUACCAGAUCCACAACAAACAUGAGGAUCACCCAUGUAUAAAGUGGUAUCCCUUGGCAGCCUGUGACAAUCG [theeternabot_sameState_MS2_Theo_B_19]	NO
GCUCACAUGAGGAUCACCCAUGUACGUCCGCGAGGACCGGUACGGCCGCCACUCGUGUUAGCUUCAAACUUGUUAGUGUUAAACA [Atleerge]	YES

State whether the measured apparent KD of MS2 coat protein reaches 0.03 µM, counting equality as reaching it, for GAUGAACUAUUUGAUACCAGACUACAUGAGGAUCACCCAUGUGCGCGUCGUCCUCUGCCAGUCCCUUGGCAGCAAAUAGUUUAUC [XTheo B #9]
YES
